Property: selectivity ratio; scope: individual compounds
Experimental Protocol: Selectivity index, ratio of IC50 for cytotoxicity against bovine MDBK cells to IC50 for Trypanocidal activity against Trypanosoma brucei gambiense
Measurement Conditions: cattle
Value Type: selectivity ratio

- Smi: "COc1ccc(-c2cnc(-c3cccc(OC)c3OC)o2)c(OC)c1"
  Result: "> 9.4"
- Smi: "COc1cccc(-c2ncc(-c3ccccc3[N+](=O)[O-])o2)c1OC"
  Result: "> 4.8"
- Smi: "CCCOc1ccccc1-c1cnc(-c2cccc(OC)c2OC)o1"
  Result: "> 10"

---

Property: IC50; scope: individual molecules
Test system: Trypanosoma brucei rhodesiense
Experimental Protocol: Trypanocidal activity against Trypanosoma brucei rhodesiense assessed as reduction in intracellular ATP production incubated for 72 hrs by CellTiter-Glo luminescent cell viability assay
Assay type: functional, organism-based
Value Type: IC50 (µM)

- Smi: "CC(=O)Oc1ccccc1-c1cnc(-c2cccc(OC(C)=O)c2OC(C)=O)o1"
  Assay System: "Trypanosoma brucei rhodesiense"
  Op: "="
  Measured Number: 2.5
- Smi: "COc1cccc(-c2ncc(-c3c(OC)cccc3OC)o2)c1OC"
  Assay System: "Trypanosoma brucei rhodesiense"
  Op: "="
  Measured Number: 32.2
- Smi: "Oc1ccccc1-c1nnc(-c2cccc(O)c2O)o1"
  Assay System: "Trypanosoma brucei rhodesiense"
  Op: "="
  Measured Number: 1.9
- Smi: "COc1ccc(OC)c(-c2cnc(-c3ccccc3OC)o2)c1"
  Assay System: "Trypanosoma brucei rhodesiense"
  Op: ">"
  Measured Number: 80.3
- Smi: "CCCOc1ccccc1-c1cnc(-c2cccc(OC)c2OC)o1"
  Assay System: "Trypanosoma brucei rhodesiense"
  Op: "="
  Measured Number: 27.1
- Smi: "COc1cccc(-c2ncc(-c3ccccc3O)o2)c1OC"
  Assay System: "Trypanosoma brucei rhodesiense"
  Op: ">"
  Measured Number: 84.1

---

Experimental Protocol: Selectivity index, ratio of IC50 for cytotoxicity against bovine MDBK cells to IC50 for Trypanocidal activity against Trypanosoma congolense

- Smi: "COc1cccc(-c2ncc(-c3ccccc3[N+](=O)[O-])o2)c1OC"
  selectivity ratio: "> 36"
- Smi: "COc1ccccc1-c1cnc(-c2cccc(OC)c2OC)o1"
  selectivity ratio: "> 414"
- Smi: "COc1cccc(-c2cnc(-c3cccc(OC)c3)o2)c1"
  selectivity ratio: "> 17"

---

Experimental Protocol: Selectivity index, ratio of IC50 for cytotoxicity against bovine MDBK cells to IC50 for Trypanocidal activity against Trypanosoma brucei rhodesiense
Note to self: use MET only for selectivity ratio readings below 2; a reading exactly at 2 still gets NOT MET.

- Smi: "COc1cccc(-c2ncc(-c3ccccc3N(C)C)o2)c1OC"
  Category: "NOT MET"
- Smi: "COc1ccc(-c2cnc(-c3ccc(OC)c(OC)c3OC)o2)c(OC)c1OC"
  Category: "MET"
- Smi: "CCCOc1ccccc1-c1cnc(-c2cccc(OC)c2OC)o1"
  Category: "NOT MET"
- Smi: "Oc1ccccc1-c1coc(-c2cccc(O)c2O)n1"
  Category: "NOT MET"
- Smi: "CC(=O)Oc1ccccc1-c1cnc(-c2cccc(OC(C)=O)c2OC(C)=O)o1"
  Category: "NOT MET"
- Smi: "CC(=O)Oc1ccc(OC(C)=O)c(-c2cnc(-c3ccccc3)o2)c1"
  Category: "MET"
- Smi: "Oc1ccc(O)c(-c2cnc(-c3cc(O)ccc3O)o2)c1"
  Category: "MET"
- Smi: "COc1ccccc1-c1nnc(-c2cccc(OC)c2OC)s1"
  Category: "NOT MET"
- Smi: "Oc1ccccc1-c1nnc(-c2cccc(O)c2O)s1"
  Category: "NOT MET"
- Smi: "COc1ccc(-c2cnc(-c3cccc(OC)c3OC)o2)cc1"
  Category: "MET"
- Smi: "Oc1ccccc1-c1cnc(-c2cccc(O)c2O)o1"
  Category: "NOT MET"
- Smi: "Oc1ccccc1-c1cnc(-c2cccc(O)c2O)s1"
  Category: "NOT MET"
- Smi: "Oc1ccc(O)c(-c2cnc(-c3ccccc3)o2)c1"
  Category: "MET"
- Smi: "COc1cccc(-c2ncc(-c3ccccc3N)o2)c1OC"
  Category: "MET"
- Smi: "COc1cccc(-c2ncc(-c3ccccc3[N+](=O)[O-])o2)c1OC"
  Category: "NOT MET"
- Smi: "COc1cccc(-c2cnc(-c3ccc(OC)c(OC)c3OC)o2)c1OC"
  Category: "NOT MET"
- Smi: "COc1ccc(-c2cnc(-c3cccc(OC)c3OC)o2)c(OC)c1"
  Category: "NOT MET"
- Smi: "COc1cccc(-c2ncc(-c3c(OC)cccc3OC)o2)c1OC"
  Category: "NOT MET"
- Smi: "COc1cccc(-c2ncc(-c3ccccc3)o2)c1OC"
  Category: "MET"

From: ChEMBL document CHEMBL4811303
